Source: the supplement of paper PMC11061612

System: Ca9-22 (Head and Neck Carcinoma)
Test: combination Emax (second highest fraction inhibited in the dose matrix, 72 h); higher = more inhibition; extreme values may be limits of the assay
Readings of combination Emax for the listed molecules

Molecule	combination Emax
CN(CCO)CC[C@H](CSc1ccccc1)Nc1ccc(S(=O)(=O)NC(=O)c2ccc(N3CCC([C@@H](O)c4ccccc4-c4ccc(Cl)cc4)CC3)cc2)cc1S(=O)(=O)C(F)(F)F [AZD4320] + CN(C)CCCOc1ccc(-c2ccc3ncc4c(c3c2)n(C2CCOCC2)c(=O)n4C)cn1 [AZD0156] (first compound max 1 µM, 7x7, partner max 1 µM)	0.0929
CS(=O)(=O)CCNCc1ccc(-c2ccc3ncnc(Nc4ccc(OCc5cccc(F)c5)c(Cl)c4)c3c2)o1 [Lapatinib] + NC1(c2ccc(-c3nc4ccn5c(=O)[nH]nc5c4cc3-c3ccccc3)cc2)CCC1 [MK-2206] (first compound max 10 µM, 7x7, partner max 10 µM)	0.971
Cn1cnc2c(F)c(Nc3ccc(Br)cc3Cl)c(C(=O)NOCCO)cc21 [Selumetinib] + C[C@@H]1COCCN1C2=NC(=NC(=C2)C3(CC3)[S@](=N)(=O)C)C4=C5C=CNC5=NC=C4 [AZD6738] (first compound max 10 µM, 7x7, partner max 10 µM)	0.869
C=CCn1c(=O)c2cnc(Nc3ccc(N4CCN(C)CC4)cc3)nc2n1-c1cccc(C(C)(C)O)n1 [AZD1775] + C1CN(CCC1(C(=O)N[C@@H](CCO)C2=CC=C(C=C2)Cl)N)C3=NC=NC4=C3C=CN4 [Capivasertib] (first compound max 3 µM, partner max 3 µM)	0.921

* * *

Tested on: JVM-3 (B-Cell Non-Hodgkin's Lymphoma);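 note: after 72 h of two-drug dosing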
Experiment: Bliss excess, mean over the matrix (fraction); higher = more synergy
Some molecules, each annotated with its measured Bliss excess.

Molecule	System Name	Bliss excess
Cc1c2c(nn1C)CSCc1cc(n(C)n1)CSc1cc(c3ccccc3c1)OCCCc1c(C(=O)O)n(C)c3c-2c(Cl)ccc13 [AZD5991] + C1CN(CCC1(C(=O)N[C@@H](CCO)C2=CC=C(C=C2)Cl)N)C3=NC=NC4=C3C=CN4 [Capivasertib] (first compound max 1 µM, 7x7, partner max 3 µM)	JVM-3 (B-Cell Non-Hodgkin's Lymphoma)	-0.0363
CN(C)CCCOc1ccc(-c2ccc3ncc4c(c3c2)n(C2CCOCC2)c(=O)n4C)cn1 [AZD0156] + CCN(CCO)CCCOc1ccc2c(Nc3cc(CC(=O)Nc4cccc(F)c4)[nH]n3)ncnc2c1 [AZD2811] (first compound max 1 µM, 7x7, partner max 1 µM)	JVM-3 (B-Cell Non-Hodgkin's Lymphoma)	-0.0252
Cc1c2c(nn1C)CSCc1cc(n(C)n1)CSc1cc(c3ccccc3c1)OCCCc1c(C(=O)O)n(C)c3c-2c(Cl)ccc13 [AZD5991] + C[C@@H](Nc1cc(F)cc(F)c1)c1cc(C(=O)N(C)C)cc2c(=O)cc(N3CCOCC3)oc12 [AZD8186] (first compound max 1 µM, 7x7, partner max 3 µM)	JVM-3 (B-Cell Non-Hodgkin's Lymphoma)	-0.0119
C=CCn1c(=O)c2cnc(Nc3ccc(N4CCN(C)CC4)cc3)nc2n1-c1cccc(C(C)(C)O)n1 [AZD1775] + O=C(c1cc(Cc2n[nH]c(=O)c3ccccc23)ccc1F)N1CCN(C(=O)C2CC2)CC1 [Olaparib] (first compound max 1 µM, partner max 10 µM)	JVM-3 (B-Cell Non-Hodgkin's Lymphoma)	-0.109
Cc1c2c(nn1C)CSCc1cc(n(C)n1)CSc1cc(c3ccccc3c1)OCCCc1c(C(=O)O)n(C)c3c-2c(Cl)ccc13 [AZD5991] + Cc1cc2ncnn2cc1Nc1ncc2c(n1)n(C1CCOCC1)c(=O)n2C [AZD7648] (first compound max 1 µM, 7x7, partner max 10 µM)	JVM-3 (B-Cell Non-Hodgkin's Lymphoma)	-0.0539
Cc1c2c(nn1C)CSCc1cc(n(C)n1)CSc1cc(c3ccccc3c1)OCCCc1c(C(=O)O)n(C)c3c-2c(Cl)ccc13 [AZD5991] + Cn1cnc2c(F)c(Nc3ccc(Br)cc3Cl)c(C(=O)NOCCO)cc21 [Selumetinib] (first compound max 1 µM, 7x7, partner max 3 µM)	JVM-3 (B-Cell Non-Hodgkin's Lymphoma)	-0.0296
CC1(C)CCC(CN2CCN(c3ccc(C(=O)NS(=O)(=O)c4ccc(NCC5CCOCC5)c([N+](=O)[O-])c4)c(Oc4cnc5[nH]ccc5c4)c3)CC2)=C(c2ccc(Cl)cc2)C1 [Venetoclax] + Cn1cnc2c(F)c(Nc3ccc(Br)cc3Cl)c(C(=O)NOCCO)cc21 [Selumetinib] (first compound max 1 µM, 7x7, partner max 3 µM)	JVM-3 (B-Cell Non-Hodgkin's Lymphoma)	-0.0583
